Ref: the supplement of paper PMC13380429

# Test system: Calu-3
# Procedure Details: cell viability relative to DMSO; higher = less toxic
# Particulars: 72 h; 10000 nM
cell viability overview

>  <Compound>
C[N+](C)(C)CC(=O)O

>  <cell viability (%)>
98.7

$$$$
>  <Compound>
CN1CCN(c2nc3ccccc3nc2Cl)CC1

>  <cell viability (%)>
98.3

$$$$
>  <Compound>
Cc1cccc(C)c1NC(=O)CN1CCCC1=O

>  <cell viability (%)>
98.7

$$$$
>  <Compound>
Cn1cc(C2=C(c3cn(C4CCN(Cc5ccccn5)CC4)c4ccccc34)C(=O)NC2=O)c2ccccc21

>  <cell viability (%)>
109

$$$$
>  <Compound>
c1ccc(CN2CCC3(CCc4ccccc43)CC2)cc1

>  <cell viability (%)>
96.5

$$$$
>  <Compound>
CCCc1nc2c(C)cc(-c3nc4ccccc4n3C)cc2n1Cc1ccc(-c2ccccc2C(=O)O)cc1

>  <cell viability (%)>
108

$$$$
>  <Compound>
COc1ccc(-c2nc(N3CCOCC3)c3sc(CN(C)c4ncc(C(=O)NO)cn4)cc3n2)cn1

>  <cell viability (%)>
3.7

$$$$
>  <Compound>
CCOC(=O)c1cncn1[C@H](C)c1ccccc1 [etomidate]

>  <cell viability (%)>
100

$$$$
>  <Compound>
COc1cc(/C=C2\CCC/C(=C\c3ccc(O)c(OC)c3)C2=O)ccc1O

>  <cell viability (%)>
59.3

$$$$
>  <Compound>
CN1c2ccccc2C(NCCCCCCC(=O)O)c2ccc(Cl)cc2S1(=O)=O (stereo not given)

>  <cell viability (%)>
102

$$$$
